# measurement_target: recombinant human SGK-1 enzyme (Homo sapiens)
# assay_info: Enzymatic activity assay: SGK-1 substrate peptide phosphorylation (Caliper lab-chip mobility shift)
# Type: biochemical
# run_conditions: peptide substrate 1 μM, ATP 10 μM, 60 min at 37° C., read-out: IC50 values for inhibition of SGK-1 enzymatic activity
Mark criterion met for IC50 under 40 nM, criterion not met if at or over.

I'd appreciate it if you could check whether `COc1ccc(Cl)c(S(=O)(=O)Nc2ccc(-c3nc(OCC(F)(F)F)c4c(N)n[nH]c4n3)cc2)c1` has IC50 smaller than 40 nM.
criterion met

Then `O=S(=O)(Nc1ccc(-c2nc(N3CC(O)C3)c3cn[nH]c3n2)cc1F)c1cc(Cl)ccc1Cl` ?
criterion not met

Then Cc1n[nH]c2nc(-c3ccc(NS(=O)(=O)c4cc(F)ccc4C#N)cc3)nc(OC3CCC(O)CC3)c12 (centres unmarked) ?
criterion met

Then `COc1ccc(Cl)c(S(=O)(=O)Nc2ccc(-c3cc4[nH]nc(C)c4c(Oc4ccc(N(C)C)nc4)n3)cc2)c1` ?
criterion met

Then `COc1ccc(Oc2nc(-c3ccc(NS(=O)(=O)c4cc(F)ccc4F)cc3)cc3[nH]nc(C)c23)cn1` ?
criterion met

Then Cc1ccc(F)c(S(=O)(=O)Nc2ccc(-c3nc(OCC4CNCCO4)c4c(C)n[nH]c4n3)cc2)c1 (centres unmarked) ?
criterion met

Then `COCCc1nc(-c2ccc(NS(=O)(=O)c3cc(F)c(F)cc3Cl)cc2)nc2[nH]nc(N)c12` ?
criterion not met

Then `Cc1nc(-c2ccc(NS(=O)(=O)C3=CSCC=C3Br)cc2)nc2[nH]nc(N)c12` ?
criterion not met

Then `O=S(=O)(Nc1ccc(-c2nc(N[C@H]3CC[C@@H](O)CC3)c3cn[nH]c3n2)cc1)c1cc(Cl)ccc1F` ?
criterion met

Then `Nc1n[nH]c2cc(-c3ccc(NS(=O)(=O)c4cc(Cl)c(F)cc4F)cc3)ncc12` ?
criterion met

Then `COCCc1nc(-c2ccc(NS(=O)(=O)c3cc(Cl)ccc3Cl)cc2)nc2[nH]nc(N)c12` ?
criterion not met

Then `Cc1ccc(C#N)c(S(=O)(=O)Nc2ccc(-c3nc(OCC(F)(F)F)c4c(N)n[nH]c4n3)cc2)c1` ?
criterion met

Then `Cc1n[nH]c2nc(-c3ccc(NS(=O)(=O)c4ccccc4F)cc3)nc(OC3CCN(C(C)C)CC3)c12` ?
criterion met

Then `Cc1ccc(C#N)c(S(=O)(=O)Nc2ccc(-c3nc(OC4CNC4)c4cn[nH]c4n3)cc2)c1` ?
criterion met

###

Hi there, I'd appreciate the recorded IC50 for every entry that follows.
# measurement_target: recombinant human SGK-1 enzyme (Homo sapiens, UniProt O00141)
# Sequence (O00141 whole entry, looked up): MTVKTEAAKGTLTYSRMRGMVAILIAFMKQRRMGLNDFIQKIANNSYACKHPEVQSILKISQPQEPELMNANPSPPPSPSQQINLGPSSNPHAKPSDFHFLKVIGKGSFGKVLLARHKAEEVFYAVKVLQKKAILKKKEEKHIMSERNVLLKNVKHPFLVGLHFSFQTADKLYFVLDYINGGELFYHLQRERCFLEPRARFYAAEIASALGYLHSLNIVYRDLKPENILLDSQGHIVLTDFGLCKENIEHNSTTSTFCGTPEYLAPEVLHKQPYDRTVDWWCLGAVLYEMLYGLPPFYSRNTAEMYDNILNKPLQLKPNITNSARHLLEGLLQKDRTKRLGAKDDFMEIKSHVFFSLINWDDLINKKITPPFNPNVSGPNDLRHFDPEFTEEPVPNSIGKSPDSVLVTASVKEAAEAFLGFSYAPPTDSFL
# assay_info: Enzymatic activity assay: SGK-1 substrate peptide phosphorylation (Caliper lab-chip mobility shift)
# Type: biochemical
# run_conditions: peptide substrate 1 μM, ATP 10 μM, 60 min at 37° C., read-out: IC50 values for inhibition of SGK-1 enzymatic activity

Recorded IC50 of Cc1n[nH]c2nc(-c3ccc(NS(=O)(=O)c4cc(Cl)ccc4C#N)cc3)nc(OCCCN)c12 [Example 220] , please.
< 1.5 nM

Then COc1ccc(C#N)c(S(=O)(=O)Nc2ccc(-c3nc(OC4CCC(O)CC4)c4cn[nH]c4n3)cc2)c1 (centres unmarked) [Example 134] ?
< 1.5 nM

Then COc1ccc(Cl)c(S(=O)(=O)Nc2ccc(-c3nc(C)c4c(N)n[nH]c4n3)cc2)c1 [Example 467] ?
< 1.5 nM

Then COc1ccc(Cl)c(S(=O)(=O)Nc2ccc(-c3nc(O[C@@H]4CCC(O)C4)c4cn[nH]c4n3)cc2)c1 (some centres unmarked) [Example 91] ?
< 1.5 nM

Then O=S(=O)(Nc1ccc(-c2nc(OCC3CNC3)c3cn[nH]c3n2)cc1)c1cc(Cl)ccc1F [Example 198] ?
< 1.5 nM
